EXPERIMENTAL_DETAILS: Metabolic stability in human serum assessed as alpha-chymotrypsin-mediated compound degradation after 4 hrs by LC-MS analysis
Assay type: ADME, cell-free
PARTICULARS: Tris-HCl/CaCl2 buffer; in the assay text read “in Tris-HCl/CaCl2 buffer” for “in human serum”; read-out: Drug degradation
REPORTED_PROPERTY: metabolised at 4 h

COc1cccc2c1C(=O)c1c(O)c3c(c(O)c1C2=O)C[C@@](O)(/C(C)=N/OCC(=O)NCCCC[C@H](NC(=O)[C@H](Cc1c[nH]c2ccccc12)NC(=O)[C@H](CC(=O)O)NC(=O)[C@H](Cc1cnc[nH]1)NC(=O)[C@H](CCCCNC(=O)C(C)C)NC(=O)[C@H](Cc1c[nH]c2ccccc12)NC(=O)[C@H](Cc1cnc[nH]1)NC(=O)[C@@H]1CCC(=O)N1)C(=O)N1CCC[C@H]1C(=O)NCC(N)=O)C[C@@H]3O[C@H]1C[C@H](N)[C@H](O)[C@H](C)O1 :: 60%
